# Test system: SF-539
# assay.details: NCI one-dose assay
# Format: cell-based
# assay.conditions: Homo sapiens, SF-539, CNS cancer, read-out: Cell growth inhibition %
Measured inhibition at 10 µM of individual entries
quantity.name: inhibition at 10 µM (%)

* C=CCn1c(SCC(=O)c2ccc(C)cc2)nnc1-c1c[nH]c2ccccc12 [Compound 6c] | 1.45
* O=C(CSc1nnc(-c2c[nH]c3ccccc23)n1-c1ccccc1)c1ccc(Cl)cc1 [Compound 6j] | 50.5
* Cc1ccc(C(=O)CSc2nnc(-c3c[nH]c4ccccc34)n2-c2ccccc2)cc1 [Compound 6h] | 77.9
* C=CCn1c(SC/C(=N\O)c2ccccc2)nnc1-c1c[nH]c2ccccc12 [Compound 7a] | 3.26
* C=CCn1c(SCC(=O)c2ccc(Cl)cc2)nnc1-c1c[nH]c2ccccc12 [Compound 6e] | 0.21
* Cc1ccc(/C(CSc2nnc(-c3c[nH]c4ccccc34)n2-c2ccccc2)=N/O)cc1 [Compound 7h] | 89.9
* C=CCn1c(SC/C(=N\O)c2ccc(C)cc2)nnc1-c1c[nH]c2ccccc12 [Compound 7c] | -1.42
* C=CCn1c(SCC(=O)c2ccc(OC)cc2)nnc1-c1c[nH]c2ccccc12 [Compound 6b] | 1.18
